Origin of measurements: PubChem BioAssay

- assay: RAM signaling pathway blockade in yeast – S. cerevisiae, Pdr1DBD-CYC8 efflux-inhibited sensitized strain, primary screen (AID 1298);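 note: 0% = DMSO untreated cells without growth and 100% = 10 µM 1-NA-PP1 full growth; higher means more yeast growth rescued from 5-FOA killing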
- run.conditions: S. cerevisiae cbk1-as DSE1-URA3 strain, 5-FOA growth OD615, 2 d; at 50 µM; active compounds read high
measured.metric: RAM network inhibition (%)
Could you give me the number in %? Just the number is fine.

Record request: RAM network inhibition value, item O=C(CN1CCOc2ccccc21)N1CCN(c2cccc(Cl)c2)CC1
4.14

Please report the recorded RAM network inhibition for COc1ccc(N(CC(=O)O)S(=O)(=O)c2ccc(OC)c(OC)c2)cc1 .
0.87

Recorded RAM network inhibition for CCOC(=O)C1CCN(S(=O)(=O)C(F)(F)c2nc3ccccc3s2)CC1 , please?
5.28

Need RAM network inhibition of Cc1cccc(N2CCN(C(=O)c3cc4ccccc4oc3=O)CC2)c1C , thanks.
-1.13

Fill in the blank: the reported RAM network inhibition of COc1ccccc1CCNC(=O)CSc1nc(-c2ccco2)cc(C(F)(F)F)n1 is ____.
6.42

# get_value(readout='RAM network inhibition', item= COc1ccc(C2C(C(=O)N3CCCC3)c3cc(OC)c(OC)cc3C(=O)N2C)cc1 (stereo not given) )
5.28

# input compound: CN(CCNS(=O)(=O)c1ccc2c(c1)oc(=O)n2C)Cc1ccccc1 ; wanted: its RAM network inhibition
4.66

# query: RAM network inhibition of entry COCCCN1C(=O)C(=O)/C(=C(/O)c2ccc(OCC(C)C)cc2C)C1c1cccnc1 (stereo not given)
2.11

Request the reported RAM network inhibition associated with COc1ccc(NC(=O)CSc2nnc(Cc3cccn3C)n2-c2ccc(F)cc2)cc1
8.6

Sample CCOc1ccc(N2C(=O)CC(N3CC(C)OC(C)C3)C2=O)cc1 (stereo not given) — what was its RAM network inhibition?
2.33

Query (compound): COc1cc(C(=O)NCCc2cn3ccc(C)cc3n2)cc(OC)c1OC ; field requested: RAM network inhibition
2.94

Bench note: what RAM network inhibition did Cc1cc(N)n2nc(-c3ccccc3)cc2n1 show?
4.23

Fill in the blank: the reported RAM network inhibition of CCC(C)C1C(C#N)=C(N)OC2=C1C(=O)CC(C)(C)C2 (stereo not given) is ____.
6.21

What value of measured RAM network inhibition is listed for CCCC(=O)c1ccc(N2CCCCCC2)c(F)c1 ?
1.5

// lookup RAM network inhibition for CCn1cc(C(=O)N2CCCC2)c(=O)c2cc(S(=O)(=O)N(C)C)ccc21
3.02

Can you look up the measured RAM network inhibition of O=C(NC1CCCc2ccccc21)c1cccnc1 (stereo not given) for me?
0.22

Look at this compound and give its reported RAM network inhibition. COc1ccc(-c2nc(CSCC(=O)N3CCc4ccccc4C3)c(C)o2)cc1OC
3.92

Quick check: RAM network inhibition of CC(C)=CC(=O)OCC(=O)NC(=O)NC(C)(C)C ?
2.91

Form field: reported RAM network inhibition of COc1cc(NC(=O)c2cc3c(C)nc4ccccc4c3o2)cc(OC)c1OC
0.97

Consider the compound shown here: CCn1c(C(=O)N2CCC(C(=O)N3CCN(c4ccccn4)CC3)CC2)cc2sccc21 What is its recorded RAM network inhibition?
1.16

Data request, read-out RAM network inhibition, for CCOC(=O)Nc1ccc2c(c1)N(C(=O)N(C)C)c1ccccc1CC2
2.67

Consider the compound shown here: CCSc1nnc(NC(=O)c2cc3c(s2)CCCC3)s1 What is its recorded RAM network inhibition?
-1.29

Could you share which RAM network inhibition value was measured for Cc1nnc(NC(=O)C(C)Sc2nncn2C)s1 (stereo not given) ?
1.06

Give the measured RAM network inhibition of O=C(NC(Cc1ccc2c(c1)OCO2)C(=O)N1CCCC1C(=O)O)c1ccccc1 (stereo not given) .
6.49

Which RAM network inhibition reading was recorded for the compound CC/C(=C\C(=O)c1ccncc1)Nc1ccc(O)cc1 ?
2.31

Query (compound): Cc1ccccc1Cn1cc(/C=N/n2cnnc2)c2ccccc21 ; field requested: RAM network inhibition
-0.25

Can you look up the measured RAM network inhibition of CCOC(=O)c1ccccc1NC(=O)CSc1nccn1C for me?
1.28

Any idea what RAM network inhibition was measured for O=C(O)C1CCCN(S(=O)(=O)c2ccc(Cl)s2)C1 (stereo not given) ?
0.99

Reported RAM network inhibition, compound COc1ccc(-c2nc(C(N)=O)c3[nH]c(=O)n(-c4ccccc4OC)c3n2)c(OC)c1 : ____
0.1

Look up RAM network inhibition: O=C(CSc1ncnc2c1oc1ccccc12)Nc1cccc(C(F)(F)F)c1
7.32
